measurementTarget: T1, anti-CD28 Fab (SEQ ID NOs: 202, 203)
T1 construct: biotinylated and captured on neutravidin coated plates in the phage ELISA
T1 sequence (VH, as listed by the source, chain 1 of 2): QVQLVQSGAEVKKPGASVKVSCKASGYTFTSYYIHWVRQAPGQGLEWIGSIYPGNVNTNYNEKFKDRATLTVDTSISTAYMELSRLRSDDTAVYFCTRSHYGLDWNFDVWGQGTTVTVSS
T1 sequence (VL, as listed by the source, chain 2 of 2): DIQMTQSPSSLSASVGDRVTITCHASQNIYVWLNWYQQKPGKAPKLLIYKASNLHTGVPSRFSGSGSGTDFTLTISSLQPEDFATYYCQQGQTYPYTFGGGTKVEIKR
protocol: phage binding ELISA on captured biotinylated Fab;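 note: clonal phage supernatants added to wells preincubated with CD28 antigen or blocking buffer only, bound phage detected by ELISA with horseradish-conjugated anti-M13 antibody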
assayMetric: Anti-CD28 Fab (SEQ ID NOs: 202, 203) signal

INSERT INTO measurements (binder, recordedresult) VALUES
  ('YCAAGATYPWPLCL [Phage-952]', 2.08),
  ('TCAAGATYEWPACL [Phage-947]', 2.09),
  ('SCAAVFSYSWPMCF [Phage-973]', 1.99),
  ('TCAAGAHYPWPACL [Phage-904]', 1.92),
  ('WCWYYREWVPMTCP [Phage-14]', 1.85),
  ('SCAAGAMWPWPVCV [Phage-915]', 2.29),
  ('PDCQTILFKPWCVR [Phage-4]', 2.09),
  ('GCAAGATYPWPSCL [Phage-957]', 2.05),
  ('TCSAGATYTWPKCF [Phage-891]', 1.87),
  ('YCAGMSTIQLWLKC [Phage-20]', 2.16),
  ('TCSAGAAYPWPLCL [Phage-895]', 2.36),
  ('LCAAGATYPWPTCL [Phage-897]', 1.71),
  ('DCWWMFESYPGRCI [Phage-12]', 1.65),
  ('TCSAGATYVWPQCF [Phage-956]', 2.05),
  ('MCSAGANWPWPLCF [Phage-932]', 2.18),
  ('TCSAGASWAWPWCF [Phage-961]', 2.03);
